// data source = patent US12275725B2

Give measured IC50 for each item. Keep answers brief.
- Tested on: OE 33 cell line
- procedure details: Cell viability, MTT, OE33 cell line
- Type: cell-based, human
- conditions: Homo sapiens, OE33, 72 h treatment
Just the number in µM, nothing appended.

[ask] Name the reported IC50 value associated with the compound "CCOC(=O)COc1c(F)cc(/C=C2\SC(=S)N(CC(=O)N(C)C)C2=O)cc1OC"
[reply] 9.3

[ask] Sample "CCOC(=O)COc1ccc(F)cc1/C=C1\SC(=S)N(CC(=O)N(C)C)C1=O" — what was its IC50?
[reply] 12.8

----------
- procedure details: Pharmacokinetic study in mouse plasma
- Format: in vivo
- conditions: iv; NADi-260 i.v. 2 mg/kg, mouse plasma; back extrapolated; initial three time points only; read-out: *C0/Cmax
property: Cmax (ng/mL)
Write the number in ng/mL without appending the unit.

[ask] Any idea what Cmax was measured for "COc1cc(/C=C2\SC(=S)N(CC(=O)N(C)C)C2=O)cc(F)c1OCc1nc[nH]n1" ?
[reply] 837

[ask] # lookup: Cmax of COc1cc(CC2SC(=S)N(CC(=O)N(C)C)C2=O)cc(F)c1OCc1nnc[nH]1 (centres unmarked)
[reply] 3480

----------
- measured on: Notch transcriptional activation complex (NTC) (Homo sapiens, UniProt P46531+Q06330)
- Construct: made in house; host or cells: SF21 insect cells (baculovirus)
- Sequence (P46531 1754-2555 limits assumed): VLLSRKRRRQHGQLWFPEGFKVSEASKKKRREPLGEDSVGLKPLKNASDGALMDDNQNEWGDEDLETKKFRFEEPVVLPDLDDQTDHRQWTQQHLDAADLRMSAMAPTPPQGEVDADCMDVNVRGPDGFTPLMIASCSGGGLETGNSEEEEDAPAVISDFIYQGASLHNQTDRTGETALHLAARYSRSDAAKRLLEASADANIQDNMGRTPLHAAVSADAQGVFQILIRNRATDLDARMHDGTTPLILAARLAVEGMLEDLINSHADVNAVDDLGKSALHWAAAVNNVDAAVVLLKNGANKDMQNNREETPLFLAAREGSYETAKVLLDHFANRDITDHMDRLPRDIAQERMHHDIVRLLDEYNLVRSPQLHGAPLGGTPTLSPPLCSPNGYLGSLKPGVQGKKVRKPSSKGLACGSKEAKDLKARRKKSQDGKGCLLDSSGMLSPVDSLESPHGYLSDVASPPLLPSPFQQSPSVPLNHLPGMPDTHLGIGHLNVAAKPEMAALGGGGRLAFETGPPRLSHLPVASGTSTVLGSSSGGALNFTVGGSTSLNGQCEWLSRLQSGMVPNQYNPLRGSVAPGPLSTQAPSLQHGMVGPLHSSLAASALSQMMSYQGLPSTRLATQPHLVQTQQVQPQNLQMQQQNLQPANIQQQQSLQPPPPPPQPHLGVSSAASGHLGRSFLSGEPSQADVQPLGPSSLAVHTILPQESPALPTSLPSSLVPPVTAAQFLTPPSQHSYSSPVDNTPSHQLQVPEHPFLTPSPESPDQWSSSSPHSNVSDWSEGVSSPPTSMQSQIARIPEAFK
- Sequence (Q06330 whole entry): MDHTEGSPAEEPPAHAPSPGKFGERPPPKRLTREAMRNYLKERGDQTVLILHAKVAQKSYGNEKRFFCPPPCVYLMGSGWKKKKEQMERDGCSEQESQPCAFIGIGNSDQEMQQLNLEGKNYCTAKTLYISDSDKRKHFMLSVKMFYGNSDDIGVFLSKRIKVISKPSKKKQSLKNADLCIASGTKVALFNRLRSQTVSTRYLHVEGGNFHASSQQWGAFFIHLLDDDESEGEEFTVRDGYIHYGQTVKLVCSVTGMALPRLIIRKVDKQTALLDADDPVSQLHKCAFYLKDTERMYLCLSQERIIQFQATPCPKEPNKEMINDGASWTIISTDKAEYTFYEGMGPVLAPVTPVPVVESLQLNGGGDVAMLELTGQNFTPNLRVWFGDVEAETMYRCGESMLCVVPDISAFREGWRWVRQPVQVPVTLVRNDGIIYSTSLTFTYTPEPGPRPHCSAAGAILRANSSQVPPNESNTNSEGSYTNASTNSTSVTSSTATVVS
- procedure details: Notch complex assembly assay (NTC AlphaScreen assay)
- Format: binding
- conditions: Table C; NTC AlphaScreen assay; read-out: *IC50
property: IC50 (nM)
Your answer should be a plain number; it is taken to be in nM.

[ask] Look up IC50 for this compound: "COc1cc(/C=C2\SC(=S)N(CC(=O)N(C)C)C2=O)cc(F)c1OCc1nc[nH]n1"
[reply] 20

[ask] Data request, read-out IC50, for "CCN(CC)C(=O)COc1c(F)cc(/C=C2\SC(=S)N(CC(=O)N(C)C)C2=O)cc1OC"
[reply] 2900

[ask] What IC50 value was documented for this compound, "CCOC(=O)COc1c(F)cc(/C=C2\SC(=S)N(CC(=O)N(C)C)C2=O)cc1OC" ?
[reply] 60

[ask] // lookup IC50 for "COc1cc(/C=C2\SC(=S)N(CC(=O)N(C)C)C2=O)cc(F)c1OCc1nnc(C)[nH]1"
[reply] 620

[ask] Using the record for "CCc1coc(COc2c(F)cc(/C=C3\SC(=S)N(CC(=O)N(C)C)C3=O)cc2OC)n1" , report its IC50.
[reply] 300

[ask] If you can, please state the reported IC50 value of "CCc1nnc(COc2c(F)cc(/C=C3\SC(=S)N(CC(=O)N(C)C)C3=O)cc2OC)[nH]1" .
[reply] 80

----------
- procedure details: Pharmacokinetic study in mouse plasma
- Type: in vivo
- conditions: ip; NADi-260 i.p. 100 mg/kg, mouse plasma; read-out: *C0/Cmax
- Description: Pharmacokinetic studies were performed as previously described (Astudillo et al. (2016) Cancer Res). […] All samples were processed for analysis by protein precipitation using acetonitrile and analyzed by fit for purpose LC-MS/MS method. Pharmacokinetic parameters were calculated using the non-compartmental analysis module of Phoenix WinNonlin (Version 6.3). […]
property: Cmax (ng/mL)
Give just the numeric value; ng/mL need not be written.

[ask] I have this molecule here, "COc1cc(/C=C2\SC(=S)N(CC(=O)N(C)C)C2=O)cc(F)c1O" , and I need its recorded Cmax.
[reply] 41

[ask] Recorded Cmax of "COc1cc(/C=C2\SC(=S)N(CC(=O)N(C)C)C2=O)cc(F)c1OCc1nc[nH]n1" , please.
[reply] 5700

[ask] Looking for the measured Cmax of COc1cc(CC2SC(=S)N(CC(=O)N(C)C)C2=O)cc(F)c1OCc1nnc[nH]1 (stereo not drawn) , can you help?
[reply] 8520

----------
- procedure details: Pharmacokinetic study in mouse plasma
- Format: in vivo
- conditions: ip; NADi-260 i.p. 100 mg/kg, mouse plasma
property: Tmax
Number first, unit second.

[ask] Could you share which Tmax value was measured for COc1cc(CC2SC(=S)N(CC(=O)N(C)C)C2=O)cc(F)c1OCc1nnc[nH]1 (stereo not drawn) ?
[reply] 15 min

[ask] # query: Tmax of entry "COc1cc(/C=C2\SC(=S)N(CC(=O)N(C)C)C2=O)cc(F)c1OCc1nc[nH]n1"
[reply] 4.8 min

[ask] Any idea what Tmax was measured for "COc1cc(/C=C2\SC(=S)N(CC(=O)N(C)C)C2=O)cc(F)c1O" ?
[reply] 15 min

----------
- procedure details: Pharmacokinetic study in mouse plasma
- Type: in vivo
- conditions: iv; i.v. 10 mg/kg, mouse plasma
property: half-life
Respond with the figure and its unit, in that order.

[ask] Entry "COc1cc(/C(C)=C2\SC(=S)N(CC(=O)N(C)C)C2=O)cc(F)c1OCc1nnc[nH]1" has what half-life?
[reply] 1.46 h

----------
- procedure details: Pharmacokinetic study in mouse plasma
- Type: in vivo
- conditions: ip; NADi-260 i.p. 100 mg/kg, mouse plasma
property: AUC(0-inf)

[ask] Can you look up the measured AUC(0-inf) of COc1cc(CC2SC(=S)N(CC(=O)N(C)C)C2=O)cc(F)c1OCc1nnc[nH]1 (centres unmarked) for me?
[reply] 19100 ng·h/mL

[ask] AUC(0-inf) lookup needed for "COc1cc(/C=C2\SC(=S)N(CC(=O)N(C)C)C2=O)cc(F)c1OCc1nc[nH]n1" , thanks.
[reply] 5420 ng·h/mL

----------
- procedure details: Pharmacokinetic study in mouse plasma
- Format: in vivo
- conditions: ip; i.p. 10 mg/kg, mouse plasma
property: AUC(0-t)
// unit must come after the numeric part

[ask] Would you mind telling me what AUC(0-t) value was observed for COc1cc(/C(C)=C2\SC(=S)N(CC(=O)N(C)C)C2=O)cc(F)c1OCc1nnc[nH]1 [NADi-351] ?
[reply] 4550 ng·h/mL

----------
- procedure details: Pharmacokinetic study in mouse plasma
- Format: in vivo
- conditions: iv; i.v. 10 mg/kg, mouse plasma; read-out: Vss
property: Vd (L/kg)
Please state the figure in L/kg; there is no need to write the unit.

[ask] Any idea what its Vd is? The compound is COc1cc(/C(C)=C2\SC(=S)N(CC(=O)N(C)C)C2=O)cc(F)c1OCc1nnc[nH]1 [NADi-351]
[reply] 0.8
